Listing: TGI of selected molecules
test system: NCI-H23 lung; assay: NCI tumour cell line growth inhibition, 48 h
ENDPOINT: TGI

MOLECULE: COC(=O)Nc1nc2ccc(Oc3ccc(NC(=O)Nc4cccc(Br)c4)cc3)cc2[nH]1
TEST_VALUE: > 17.1 µM
//
MOLECULE: CC(C)(C)OC(=O)NC(Cc1ccc(O)cn1)C(N)=O (centres undefined)
TEST_VALUE: > 100 µM
//
MOLECULE: CN(C)c1ccc(C(=O)c2ccc(N(C)C)c(N)c2)cc1N
TEST_VALUE: > 80.8 µM
//
MOLECULE: COc1cc(N=Nc2ccccc2)cc(/C=N\[N-]C(N)=S)c1[O-].COc1cc(N=Nc2ccccc2)cc(/C=N\[N-]C(N)=S)c1[O-].[Fe+4]
TEST_VALUE: > 100 µM
